# Tested on: S. aureus methicillin-resistant A15097
# protocol_notes: M.I.C. by tube dilution
# Assay type: cell-based
# experimental_parameters: Staphylococcus aureus, at 10^-^3 dilution, overnight 37° C.
Each record here notes measured MIC.
recorded_endpoint: MIC (µg/mL)

>>> val("N[C@@H](C(=O)NC1C(=O)N2C(C(=O)O)=C(CSC(=O)c3nccs3)CS[C@H]12)c1ccccc1 (some centres unmarked) [Compound 567]")
4
>>> val("N[C@@H](C(=O)NC1C(=O)N2C(C(=O)O)=C(CSC(=O)c3cscn3)CS[C@H]12)c1ccccc1 (some centres unmarked) [Compound 591]")
2
>>> val("N[C@@H](C(=O)NC1C(=O)N2C(C(=O)O)=C(CSC(=O)c3cncs3)CS[C@H]12)c1ccccc1 (some centres unmarked) [Compound 602]")
4
>>> val("CC1=C(C(=O)O)N2C(=O)[C@@H](NC(=O)[C@H](N)c3ccccc3)[C@H]2SC1 [cephalexin, reference compound]")
32
>>> val("Cc1nc(C(=O)SCC2=C(C(=O)O)N3C(=O)C(NC(=O)[C@H](N)c4ccccc4)[C@H]3SC2)cs1 (some centres unmarked) [Compound 607]")
8
>>> val("Cc1nc(C(=O)SCC2=C(C(=O)O)N3C(=O)C(NC(=O)[C@H](N)c4ccccc4)[C@H]3SC2)sc1C (some centres unmarked) [Compound 587]")
4
>>> val("Cc1cnc(C(=O)SCC2=C(C(=O)O)N3C(=O)C(NC(=O)[C@H](N)c4ccccc4)[C@H]3SC2)s1 (some centres unmarked) [Compound 586]")
4
>>> val("Cc1csc(C(=O)SCC2=C(C(=O)O)N3C(=O)C(NC(=O)[C@H](N)c4ccccc4)[C@H]3SC2)n1 (some centres unmarked) [Compound 556]")
4
